Value source: PubChem BioAssay AID463203

Molecular target: Glycogen synthase kinase-3 alpha (Homo sapiens) (UniProt P49840)
Sequence (P49840 whole entry, looked up): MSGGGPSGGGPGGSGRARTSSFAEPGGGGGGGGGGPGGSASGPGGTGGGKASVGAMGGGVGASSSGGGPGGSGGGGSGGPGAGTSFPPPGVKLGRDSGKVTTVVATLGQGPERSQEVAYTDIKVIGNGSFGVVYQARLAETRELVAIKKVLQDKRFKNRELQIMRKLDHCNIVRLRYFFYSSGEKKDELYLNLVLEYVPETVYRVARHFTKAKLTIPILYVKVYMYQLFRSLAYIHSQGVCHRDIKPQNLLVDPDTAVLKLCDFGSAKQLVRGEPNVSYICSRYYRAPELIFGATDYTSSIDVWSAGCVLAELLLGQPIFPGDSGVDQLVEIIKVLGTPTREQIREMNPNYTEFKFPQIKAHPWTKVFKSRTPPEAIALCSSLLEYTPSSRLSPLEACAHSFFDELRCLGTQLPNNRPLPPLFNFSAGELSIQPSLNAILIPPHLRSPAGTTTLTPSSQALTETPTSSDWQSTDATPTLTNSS
Assay: concentration-response blocking of human GSK3A – biochemical, luminescence, cell-free homogeneous, retest, dose response (AID 463203)
Conditions: GSK-3 alpha enzyme, ADP-Glo luminescence, 60 min
Active and inactive are the calls of the source.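 Rule for the calls: active = more than half of replicate measurements showing over 20% loss of kinase signal relative to plate controls; inconclusive = some but at most half of replicates over 20% loss; inactive = no replicate over 20% signal loss.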
# output must be one of T (active), F (inactive)

In: Lab log entry: `CCOc1ccc2ncc(S(=O)(=O)c3ccccc3)c(N3CCN(c4ccccc4)CC3)c2c1` — outcome as called in the assay?
Out: F

In: What did this assay record as the result for `O=c1[nH]ncn1-c1ccccc1` ?
Out: F

In: Look up the recorded call for CC1(C)CC(=O)C(C(C2=C(O)CC(C)(C)CC2=O)c2cccc(O)c2)C(=O)C1 (centres undefined) in this test.
Out: F

In: What did the test return for `O=C(NCCCN1CCOCC1)c1ccc(Cl)c([N+](=O)[O-])c1` ?
Out: F

In: Call for entry `Cc1onc(-c2ccccc2Cl)c1C(=O)Nc1cccc(-c2cn3cccnc3n2)c1` :
Out: F

In: Dear colleague, could you share the recorded outcome for `C[C@H](CO)N1C[C@H](C)[C@@H](CN(C)S(=O)(=O)c2ccccc2)Oc2c(NS(=O)(=O)c3ccc(F)cc3)cccc2C1=O` when you have a moment?
Out: F

In: Status in this test for `CN(C)CCCNc1ccc(S(N)(=O)=O)cc1[N+](=O)[O-]` ?
Out: F

In: Hi, do you know how `O=C(COC(=O)c1cc([N+](=O)[O-])ccc1N1CCOCC1)Nc1ccc(Cl)cn1` came out in this test?
Out: T

In: // param item: CCCC1=C(C(=O)OCC)C(c2cccnc2)n2nc(C)nc2N1 (centres undefined) ; yields the recorded call
Out: F

In: Answer briefly: the call reported for CC12CCC(C(=O)Nc3ncc([N+](=O)[O-])s3)(OC1=O)C2(C)C (centres undefined) in this assay.
Out: F

In: Dear all, I need the recorded test outcome for CCC(C)[C@H](NC(=O)NCc1ccc(Cl)cc1)C(=O)OC (some centres undefined) , thank you.
Out: F

In: Write down the call the test reported for this compound. Item: `COc1cc(/C=N/c2oc(C)c(C)c2C#N)cc(Br)c1O`
Out: F

In: Could you check what this test reported for `Cc1ccc(C(=O)Nc2cccc(C(=O)NC3CCCCC3)c2)cc1` ?
Out: F

In: Name the outcome recorded for CCc1ccc(C2CC(c3ccccc3Cl)Nc3nc(N)nn32)cc1 (centres undefined) in the assay.
Out: F

In: Returns: the outcome recorded for `O=c1[nH]ncc(N/N=C\c2ccncc2)c1Cl` in this assay.
Out: T

In: Entry `FC(F)(F)c1nnc2n1N=C(c1cccs1)CS2` : call = ?
Out: F

In: Look up the recorded call for N#CC1=C2SCN(Cc3ccccc3)CN2C(=O)CC1c1ccccc1F (centres undefined) in this test.
Out: F

In: Look up the recorded call for `Cc1ccnc(NC(=O)CN2C(=O)c3ccccc3S2(=O)=O)c1` in this test.
Out: F

In: Record lookup: outcome of this test for `CCOc1ccc(S(=O)(=O)c2c(C(=O)c3ccc(C)cc3)cnc3cc4c(cc23)OCCO4)cc1` ?
Out: F

In: What did the test return for `Cc1ccc(S(=O)(=O)N2C(=O)/C(=C3\SC(=S)NC3=O)c3ccccc32)cc1` ?
Out: F

In: Dear all, I need the recorded test outcome for `CC1(C)CC(NC(=O)COc2ccccc2Cl)CC(C)(C)N1` , thank you.
Out: F

In: Fill in: this test's call for `O=C(COC(=O)c1ccc(F)cc1F)Nc1ccc(Cl)cn1` is ___
Out: F

In: What did the test return for COc1ccc2nc(NC(=O)C3CCCN3S(=O)(=O)c3ccc(C)cc3)sc2c1 (centres undefined) ?
Out: F

In: Hi, sorry to bother you, what did the test record for `CCn1c2ccccc2c2nc3ccccc3nc21` ?
Out: F

In: Lab log entry: `C/C(=N/NC(=O)c1ccc(C)s1)c1ccncc1` — outcome as called in the assay?
Out: T

In: Tell me the assay call for `COc1ccc(-c2nc(N)ncc2-c2ccc(OC)c(OC)c2)c(O)c1` please.
Out: T

In: Given `COC(=O)c1nnn(-c2ccccc2)c1N` , state the outcome it received in this test.
Out: F

In: Outcome? O=C1c2cnc3nc(SCc4cccc(Cl)c4)nn3c2CC2c3ccccc3CCN12 (centres undefined)
Out: F

In: For `O=C1c2c(O)ccc(O)c2C(=O)c2c(NCCNCCO)ccc(NCCNCCO)c21` , which call appears in the assay record?
Out: T

In: Recorded call for `O=C(Nc1cccc(-c2cnc3ccccc3n2)c1)c1ccco1` ?
Out: F

In: Called result for `CCCCCCCCCCOC(=O)Cn1c(COc2ccc(OC)cc2)[n+](C)c2ccccc21`
Out: F

In: For this compound, state the assay outcome: N#CC1=C(SCc2ccccc2)NC(=O)CC1c1ccco1 (centres undefined)
Out: F

In: What did this assay record as the result for `Cc1ccc(NC(=S)Nc2ccc3cn[nH]c3c2)c(C)c1` ?
Out: F

In: GET /call?item= `Fc1ccc(Nc2ncnc3ccccc23)cc1` returns the recorded outcome of this test.
Out: F

In: For `CC1(C)CC(=O)C2=C(C1)Nc1ccccc1[S@]2=O` , which call appears in the assay record?
Out: F

In: Look up the recorded call for `COc1cccc2cc(C(=O)NCc3ccco3)c(=O)oc12` in this test.
Out: F

In: Which outcome was assigned to `CCC(=NCCO)c1c(O)n(C2CCCCC2)c(=O)[nH]c1=O` in this test?
Out: T

In: Record lookup: outcome of this test for `S=C(NCCC1=CCCCC1)Nc1ccccc1` ?
Out: F

In: State the result this test recorded for `CCCCNc1nc(N)nc(-c2cc(Cl)ccc2O)n1` .
Out: T

In: Hi, sorry to bother you, what did the test record for `COc1ccc(NC(=O)c2ccc(NCCCN3CCOCC3)c([N+](=O)[O-])c2)cc1` ?
Out: F

In: Which outcome was assigned to `COc1cc(/C=C2\S/C(=N/S(=O)(=O)Cc3ccccc3)NC2=O)c([N+](=O)[O-])cc1OC` in this test?
Out: F

In: Outcome? `COc1ccc(-c2noc(CSc3nc(N)c(-c4ccccc4)c(=O)[nH]3)n2)cc1`
Out: F

In: Which outcome did this test record for the compound `C/C(=N\NC(=O)c1nnn(-c2nonc2N)c1CN(C)C)c1ccco1` ?
Out: F

In: // return assay outcome for `CCOc1ccc2ncc(S(=O)(=O)c3ccccc3)c(N3CCN(c4ccc(OC)cc4)CC3)c2c1`
Out: F
